Measured values drawn from PubChem BioAssay AID1963858 for this set.

# System: HOP-62 multicell spheroids with HUVEC/MSC, viability
# assay.notes: Anticancer human tumor HOP-62 cell line growth inhibition [KRAS2];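 note: viability read after a week of compound exposure; 100% = DMSO vehicle-treated spheroids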
# particulars: second compound 3.16 µM; first compound 3.16 µM; stronger effect = lower value
Please respond with Yes when measured viability, T/C is strictly beneath 20%, and with No in all other cases.

Worked examples follow.
>  <compound>
CC(C)NCC(C(=O)N1CCN(c2ncnc3c2C(C)CC3O)CC1)c1ccc(Cl)cc1 (centres undefined) + COc1cc2nc(C)nc(NC(C)c3cc(N)cc(C(F)(F)F)c3)c2cc1OC1CCOC1

>  <category.label>
Yes

$$$$
>  <compound>
CC1COCCN1c1cc(-c2ccnn2C)c2ccnc(-c3ccn[nH]3)c2n1 (centres undefined) + COc1cc2nc(C)nc(NC(C)c3cc(N)cc(C(F)(F)F)c3)c2cc1OC1CCOC1

>  <category.label>
Yes

$$$$
>  <compound>
CC1COCCN1c1cc(-c2ccnn2C)c2ccnc(-c3ccn[nH]3)c2n1 (centres undefined) + CNCc1ccccc1-c1csc(C(C)Nc2nc(C)nc3cc(OC)c(OC)cc23)c1

>  <category.label>
Yes

$$$$

Hi there! Is viability, T/C for CC1COCCN1c1cc(-c2ccnn2C)c2ccnc(-c3ccn[nH]3)c2n1 (centres undefined) + C=CC(=O)N1CCN(c2nc(=O)n(-c3c(C)ccnc3C(C)C)c3nc(-c4c(O)cccc4F)c(F)cc23)C(C)C1 below 20%, do you know?
Yes

Find out if reported viability, T/C for CC(=O)OC12COC1CC(O)C1(C)C(=O)C(O)C3=C(C)C(OC(=O)C(O)C(NC(=O)OC(C)(C)C)c4ccccc4)CC(O)(C(OC(=O)c4ccccc4)C21)C3(C)C (centres undefined) + C=CC(=O)N1CCN(c2nc(OCC3CCCN3C)nc3c2CCN(c2cccc4cccc(C)c24)C3)CC1CC#N is less than 20%
No

is_below(viability, T/C, 20%) for O=C(c1cc(Cc2n[nH]c(=O)c3ccccc23)ccc1F)N1CCN(C(=O)C2CC2)CC1 + COc1cc2nc(C)nc(NC(C)c3cc(N)cc(C(F)(F)F)c3)c2cc1OC1CCOC1 ?
No

====

# Test system: HOP-62 multicell spheroids with HUVEC/MSC, viability
# assay.notes: Anticancer human tumor HOP-62 cell line growth inhibition [KRAS2];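 note: viability read after a week of compound exposure; 100% = DMSO vehicle-treated spheroids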
# particulars: second compound 0.1 µM; first compound 0.316 µM; stronger effect = lower value
quantity.kind: viability, T/C (%)
Give bare numbers, in %.

Return reported viability, T/C values for all items listed beneath this line.
1. CC1COCCN1c1cc(-c2ccnn2C)c2ccnc(-c3ccn[nH]3)c2n1 (stereo not given) + CC1OCC2(CCN(c3cnc(Sc4ccnc(N)c4Cl)c(N)n3)CC2)C1N
2. CCN1CCN(Cc2ccc(Nc3ncc(F)c(-c4cc(F)c5nc(C)n(C(C)C)c5c4)n3)nc2)CC1 + CC1OCC2(CCN(c3cnc(Sc4ccnc(N)c4Cl)c(N)n3)CC2)C1N
3. COc1cc2nccc(Oc3ccc(NC(=O)C4(C(=O)Nc5ccc(F)cc5)CC4)cc3)c2cc1OC + CC1OCC2(CCN(c3cnc(Sc4ccnc(N)c4Cl)c(N)n3)CC2)C1N
4. CC1OCC2(CCN(c3cnc(Sc4ccnc(N)c4Cl)c(N)n3)CC2)C1N (stereo not given) + CNCc1ccccc1-c1csc(C(C)Nc2nc(C)nc3cc(OC)c(OC)cc23)c1
5. CC(=O)OC12COC1CC(O)C1(C)C(=O)C(O)C3=C(C)C(OC(=O)C(O)C(NC(=O)OC(C)(C)C)c4ccccc4)CC(O)(C(OC(=O)c4ccccc4)C21)C3(C)C (stereo not given) + CC1OCC2(CCN(c3cnc(Sc4ccnc(N)c4Cl)c(N)n3)CC2)C1N

12.7
75.4
88
74.1
37.6
